# Target of assay: (NPNA)3 (Plasmodium falciparum)
# Test description: SPR, antibody on chip

- Binder: "AB-007044 (antibody, V domains shown) VH: QMQLVESGGGVVQPGRSLRLSCTASGFTFSTYAMHWVRQSPGQGLQWVAVISYHSTNKYYEESVRGRFTISRDNSKNTLYLQMNSLRAEDTAVYYCARDGYSSSFFDFWGQGTLVTVSS VL: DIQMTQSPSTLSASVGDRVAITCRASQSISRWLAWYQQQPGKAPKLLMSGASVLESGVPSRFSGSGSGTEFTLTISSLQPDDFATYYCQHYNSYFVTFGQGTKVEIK"
  Kd: "7.96 nM"
- Binder: "AB-007053 (antibody, V domains shown) VH: QMQLVESGGGVVQPGRSLRLSCTASGFTFSTYAMHWVRQSPGQGLQWVAVISYHSTQKYYEDSVRGRFTISRDNSKNTLYLQMNSLRAEDTAVYYCARDGYSSSFFDFWGQGTLVTVSS VL: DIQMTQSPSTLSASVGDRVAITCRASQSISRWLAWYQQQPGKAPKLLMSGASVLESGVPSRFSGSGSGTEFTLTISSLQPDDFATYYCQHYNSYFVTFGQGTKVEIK"
  Kd: "112 nM"
- Binder: "AB-007038 (antibody, V domains shown) VH: QMQLVESGGGVVQPGRSLRLSCTASGFTFSTYAMHWVRQSPGQGLQWVAVISYHSTNKYYEDSVRGRFTISRDNSKNTLYLQMNSLRAEDTAVYYCARDGYSSSFFDYWGQGTLVTVSS VL: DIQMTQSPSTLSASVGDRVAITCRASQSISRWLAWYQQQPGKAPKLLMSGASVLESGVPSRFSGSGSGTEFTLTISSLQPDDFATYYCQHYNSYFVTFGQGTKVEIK"
  Kd: "8.97 nM"
